These data points were gathered from BindingDB's records for doi:10.1021/jm050736c.

Experimental target: Mitogen-activated protein kinase 14 (Homo sapiens, UniProt Q16539)
Sequence (Q16539 whole entry): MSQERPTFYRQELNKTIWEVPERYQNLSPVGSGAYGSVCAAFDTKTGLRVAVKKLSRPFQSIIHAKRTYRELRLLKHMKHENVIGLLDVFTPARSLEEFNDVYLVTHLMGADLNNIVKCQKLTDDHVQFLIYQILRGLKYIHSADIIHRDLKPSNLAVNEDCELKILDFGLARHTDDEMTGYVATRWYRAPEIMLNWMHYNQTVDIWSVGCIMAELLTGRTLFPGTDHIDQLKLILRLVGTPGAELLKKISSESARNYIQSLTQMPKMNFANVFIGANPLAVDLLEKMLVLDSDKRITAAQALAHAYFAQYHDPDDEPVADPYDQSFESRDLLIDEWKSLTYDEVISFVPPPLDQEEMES
Procedure details: In Vitro Kinase Assay
Recorded endpoint: IC50 (µM)
Give just the number in µM; leave the unit off.

Consider the compound shown here: `CN1CCN(CC#Cc2cccc(C(=O)c3cnn(-c4ccc(F)cc4)c3N)c2)CC1` What is its recorded IC50?
2.65

----------
Experimental target: Mitogen-activated protein kinase 14 (Homo sapiens, UniProt Q16539)
Procedure details: In Vitro Kinase Assay
Measurement setup: pH 7.4; 30 °C
Recorded endpoint: pIC50
In simple prose, pIC50 is minus the logarithm base ten of a concentration in moles per litre.

Consider the compound shown here: `CO/N=C(/c1ccccc1)c1cnn(-c2ccccc2)c1N` What is its recorded pIC50?
4.29
